# TESTED_SYSTEM: human leukocyte elastase (Homo sapiens)
# Sequence (P08246 30-247 limits assumed): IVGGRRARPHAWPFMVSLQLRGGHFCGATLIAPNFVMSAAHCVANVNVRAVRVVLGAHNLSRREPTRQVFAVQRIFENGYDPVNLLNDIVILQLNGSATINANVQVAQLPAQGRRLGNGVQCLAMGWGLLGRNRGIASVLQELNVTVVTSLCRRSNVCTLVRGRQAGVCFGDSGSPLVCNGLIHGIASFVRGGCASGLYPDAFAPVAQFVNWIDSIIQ
# ASSAY_METHOD_TEXT: human leukocyte elastase inhibitory activity (MeOSuc-Ala-Ala-Pro-Val-pNA substrate, absorbance progress curves)
# Type: biochemical
# CONDITION_SUMMARY: human leukocyte elastase; substrate MeOSuc-Ala-Ala-Pro-Val-pNA; pH 7.8, 25° C. buffer; read-out: Ki
pKi: −log10 of the molar value.
MEASURED_PROPERTY: pKi

COMPOUND	REPORTED_RESULT
CC(C)CCC1C(=O)N(COP(=O)(OCc2ccccc2)OCc2ccccc2)S(=O)(=O)N1C (stereo not shown) [4(j)]	8.82

----------
Parameter Ki: see the listing below.
# TESTED_SYSTEM: human leukocyte elastase (Homo sapiens)
# Sequence (P08246 30-247 limits assumed): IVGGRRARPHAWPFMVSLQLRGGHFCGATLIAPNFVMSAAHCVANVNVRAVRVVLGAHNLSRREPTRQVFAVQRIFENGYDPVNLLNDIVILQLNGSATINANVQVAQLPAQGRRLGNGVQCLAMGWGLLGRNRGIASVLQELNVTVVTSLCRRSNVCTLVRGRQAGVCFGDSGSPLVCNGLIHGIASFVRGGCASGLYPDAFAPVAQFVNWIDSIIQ
# ASSAY_METHOD_TEXT: human leukocyte elastase inhibitory activity (MeOSuc-Ala-Ala-Pro-Val-pNA substrate, absorbance progress curves)
# Type: biochemical

MOLECULE	Ki (nM)
CCOP(=O)(OCC)OCN1C(=O)C2CCCCN2S1(=O)=O (stereo not shown)	500
CCCC1NS(=O)(=O)N(COP(=O)(OCC)OCC)C1=O (stereo not shown)	25
CCOP(=O)(OCC)OCN1C(=O)C(C(C)C)N(C)S1(=O)=O (stereo not shown)	680
CCCC1C(=O)N(COP(=O)(OCC)OCC)S(=O)(=O)N1C (stereo not shown)	2
